- Tested on: HIV
- Test Description: HOS HIV anti-infectivity assay (strain not stated)
- Type: cell-based
- Cond: Human immunodeficiency virus 1, HOS HIV anti-infectivity assay; read-out: Activity Level
pIC50: −log10 of the molar value.
Entries annotated with measured pIC50

> print(dat)
                                   molecule  experimental.value
1  CN(Cc1nc2cccc(OCCN3CCCC3)n2c1CO)[C@H]1CCCc2cccnc21              > 7.00
2  COCc1c(CN(C)[C@H]2CCCc3cccnc32)nc2cccc(N3CCN(C)CC3)n12              > 7.00

GET /values?readout=pIC50&item= CC(O)c1c(CN(C)[C@H]2CCCc3cccnc32)nc2cccc(N3CCN(C)CC3)n12 (some centres unmarked)
> 7.00

Suppose we examine the molecule CCN(Cc1nc2cccc(N3CCN(C)CC3)n2c1CO)[C@H]1CCCc2cccnc21 ; what pIC50 value has been reported?
> 7.00

Give its pIC50 value. Item: CN(C)CCOc1cccc2nc(CN(C)[C@H]3CCCc4cccnc43)c(CO)n12
> 7.00

Data request, read-out pIC50, for CN(Cc1nc2cccc(N3CCN4CCCC4C3)n2c1CO)[C@H]1CCCc2cccnc21 (some centres unmarked)
> 7.00

Need pIC50 of CN1CCN(c2cccc3nc(CN(CC4CC4)[C@H]4CCCc5cccnc54)c(CO)n23)CC1 , thanks.
> 7.00

What value of pIC50 has been reported for the following molecule? CC(C)N1CCN(c2cccc3nc(CN(C)[C@H]4CCCc5cccnc54)c(CO)n23)CC1
> 7.00
